# System: RARg homodimer (NR concentration 270 nM)
# Assay info: PBM binding z-score (relative to random genomic background probes); higher = stronger binding; sequences stand for … in GC…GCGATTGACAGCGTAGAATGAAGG

{"columns": ["Residue sequence", "PBM binding z-score"],
 "data": [
  ["CAGACTAGGTCACGAAAGGTCAAAGTCGAATGAC", 8.73],
  ["CCTCGGAGGACAGAAGGTCAGAGCGGTCCGCTTT", 3.6],
  ["GCTAGCAGGCCATTTGTGTCACTCAATGACGGGC", 0.011],
  ["GCAGACAGGTGAAGCGCAGGTAACTCAGGGTGGC", 0.0246],
  ["CAAACTAGGTCACCGGAAGCTCAAAGTCCGCATG", 5.66],
  ["TCAGACAGGTGAAGGTAAGTCAGGTACGCAGTCG", 0.581],
  ["GCTCTTAGTTGAAAGGGCAACCGAATGATTCTCG", 1.31],
  ["TCATATAGGTAAATGCTAGGAGAAAGTCCGATCT", 0.46],
  ["CCGACTGGGGCAAAAGGTTACCATAAGCCAGCCC", 2.32],
  ["CAACCTAGGTCACAGAGGTCAAAGTCCGTGCGTA", 7.92],
  ["AGAACGACGGCAATGAGTTGATAGCACGGGTGGC", -0.185],
  ["CCTAACGGGTCACGAGGTTATAGCACGACGAGCG", 4.93],
  ["ATCGAAAGGTCGTGAGGTGAATATACAGAAAGGC", 3.95],
  ["GAAACGAGGGCAAAGTTGATAGCATCTGTCGACG", 1.58],
  ["CGTAGCAGGCCAGGGTCACTCAAGCATTTCGCTT", 2.53],
  ["AGAAGGAGGGCACGCTGAGTTGATAGCAGAGTAG", 2.17],
  ["TCTTGTAGAACAACAGGAGGTTAAGAAAGATCGA", 0.286],
  ["GCTAGCAGGCCATTTGGGTCCCTCAATGACGGGC", -0.379],
  ["ACTAGCGGGCCAAGTTTGGGTCACTCAAACAAAG", 1.65],
  ["AGAACGAGGGCAATTAGTTGATAGCACGGGTGGC", 1.89],
  ["CTCGGAAGGTCGGTTGAGGTGAGTATACGGATAA", 1.86],
  ["CAAACTAGTTCACAGAGGTCAAAGTCCGTGCGTA", 5.68],
  ["CGTCCAAGGTGAATGCTAGGTCAGTGAAAGCATT", 1.91],
  ["TCTTGTAGATCAACAGGAGGGTAAGAAAGATCGA", 0.108],
  ["ATATGTAGTTTAAGGGTCATTCAGGTTGGTTCGC", 2.88],
  ["CGGACTGGGGCATAAGGTTACCATAAGCCAGCCC", 1.21]
]}

* * *

# Tested on: RARg:RXRa (NR concentration 270 nM, RXRa partner concentration 90 nM)
# Assay info: PBM binding z-score (relative to random genomic background probes); higher = stronger binding; sequences stand for … in GC…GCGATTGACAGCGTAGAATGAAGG
PBM binding z-score class ranges: label 0 (below 0.2), label 1 (0.2 to below 4), label 2 (4 or more)

{"columns": ["Residue sequence", "Answer label"],
 "data": [
  ["TATACAGGGTCAAAGGCCATAGTACGAATGTCGA", "label 2"],
  ["CCGAGTAGGTTAAGGGGCATTCAGGCAACGGTGA", "label 1"],
  ["TCTTGTAGATCAATAGAGGTTTAGAAAGTGCGCT", "label 0"],
  ["TCTTGTAGATCAGCAGGATAAGAAAGCTGGCCAA", "label 0"],
  ["CATACAAGGTCAGCTAGGCCAGAGTAGGGACGGC", "label 2"],
  ["TCTTGCAGATCAGCAGGTTAAGAAAGCTGGCCAA", "label 0"],
  ["AGAATGAGGATAAGATCAGGGAAACAGAATACAT", "label 1"],
  ["CCTAGTTAGTCAAGGTCACACACGCTATAGGTAC", "label 2"],
  ["ATCGAAAGGTCGACGAAGTGAGTATACACCGTTT", "label 1"],
  ["GGAACGAGGGCATTCGAGCTGATAGCATGGCGAT", "label 1"],
  ["AGAATGAGGTTATTAAGATCAAGGAATTGCGGTC", "label 1"],
  ["ATCTTTAGGTAACCAAGTTCAGTGAATGCCGAAC", "label 1"]
]}

* * *

# Tested on: RXRa homodimer (NR concentration 180 nM)
# Assay info: PBM binding z-score (relative to random genomic background probes); higher = stronger binding; sequences stand for … in GC…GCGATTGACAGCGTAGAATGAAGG
PBM binding z-score class ranges: low interval: < 2; middle interval: ≥ 2 and < 4; high interval: ≥ 4

{"columns": ["Residue sequence", "Answer label"],
 "data": [
  ["AGTCAAAGTTCACTAGGTATCGTAAGATTCAGCT", "middle interval"],
  ["CCTACTGGGCCAAATAGGTCATTGATGCCGATAA", "middle interval"],
  ["CCTTACGGGTCACGACGTTATAGCACGACGAGCG", "high interval"],
  ["TCTAGTTGGTCAAATGTCACACACTCGAAATGCG", "low interval"],
  ["TCTTGTAGGTCAGCAGGTTAAGAAAGCTGGCCAA", "middle interval"],
  ["ATATGTAGGTTACTTCCGGGTCATTCAGGCTATG", "middle interval"],
  ["CAAACTAGGTCACGAAAGGTCAGAGTCGAATGAC", "high interval"],
  ["TCATATAGGCAAATGCTAGGTGAAAGTCCGATCT", "low interval"],
  ["CCTAGCTGGTCAAGGTCACACACGCTATAGGTAC", "high interval"],
  ["GGAACGAGGGCAAAGTTGATAGCGTCTGTCGACG", "middle interval"],
  ["ACTAGCAGGCAAAGGGTCACTCAAGATTAGTCCG", "high interval"],
  ["AGAACGAGGGCAATGGGTTGATAGCACGGGTGGC", "low interval"]
]}

* * *

# Tested on: RARb homodimer (NR concentration 270 nM)
# Assay info: PBM binding z-score (relative to random genomic background probes); higher = stronger binding; sequences stand for … in GC…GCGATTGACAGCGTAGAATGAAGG
Below is a list of entries, each paired with its recorded PBM binding z-score value.

{"columns": ["Residue sequence", "Study target", "PBM binding z-score"],
 "data": [
  ["TCTGGTTGGTCACGGAGGTCACACACGACGGGTA", "RARb homodimer (NR concentration 270 nM)", 4.58],
  ["GCTATTAGTTGAAAGCGCAACCGAATGATTCTCG", "RARb homodimer (NR concentration 270 nM)", -0.696],
  ["TCAGACAGGTCAAGGTAACTCAGGTACGCAGTCG", "RARb homodimer (NR concentration 270 nM)", 3.61],
  ["CGTCCAAGGTCAGCAGGTCATTGAAAGCGACGTG", "RARb homodimer (NR concentration 270 nM)", 5.08],
  ["ACTATTAGTTGCGACGAGGGCAACCGATAGGTTG", "RARb homodimer (NR concentration 270 nM)", 0.942],
  ["CGTCCAAGGTCAATGCTAAGTCAGTGAAAGCATT", "RARb homodimer (NR concentration 270 nM)", 3.83],
  ["ACTAGCAGGCCAACTTTGGGTCACTCAAACAAAG", "RARb homodimer (NR concentration 270 nM)", 2.34],
  ["CCTACTGGGCCACGAAAGGACATTGATTCAGTGA", "RARb homodimer (NR concentration 270 nM)", 1.2],
  ["TGATATAGGTAAATGCTAGGTGAAAGTCCGATCT", "RARb homodimer (NR concentration 270 nM)", 0.551],
  ["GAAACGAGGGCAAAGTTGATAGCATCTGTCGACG", "RARb homodimer (NR concentration 270 nM)", 1.33],
  ["AGCTCTAGGTAAAGTTCAGTGAAAGATCGATAGA", "RARb homodimer (NR concentration 270 nM)", 2.32],
  ["GCTTCTAGATCAAGGTTAAGAAAGACTAAGCTAA", "RARb homodimer (NR concentration 270 nM)", 0.106],
  ["TCGAGTAAGTTAGTCGGGGCATTCAGCCAACATA", "RARb homodimer (NR concentration 270 nM)", -0.375],
  ["TACCCTAGGTCATGCGGGCCAGTATAGTGTCGGC", "RARb homodimer (NR concentration 270 nM)", 3.28],
  ["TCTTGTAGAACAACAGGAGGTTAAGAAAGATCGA", "RARb homodimer (NR concentration 270 nM)", 0.958],
  ["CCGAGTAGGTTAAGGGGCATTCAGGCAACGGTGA", "RARb homodimer (NR concentration 270 nM)", 1.56],
  ["CAAACTAGGTCACGAAAGGTAAAAGTCGAATGAC", "RARb homodimer (NR concentration 270 nM)", 3.34],
  ["ACTACAGGGTCACTAGGCCAGAGTAGGTACGAAT", "RARb homodimer (NR concentration 270 nM)", 3.08],
  ["ACAGACAGGTGAGTGAAGGTACCTCAGCTGGACG", "RARb homodimer (NR concentration 270 nM)", -0.44],
  ["CCTATTAGTTGACCATAAGGCCAACCGAAGCTCG", "RARb homodimer (NR concentration 270 nM)", 1.68],
  ["TAGCCTAGGTCAGATCGGGACAGTATACGCTATA", "RARb homodimer (NR concentration 270 nM)", 2.11],
  ["CTTACTGGGCCAAAAAGGTCATTGATGCCGATAA", "RARb homodimer (NR concentration 270 nM)", 4.5],
  ["CCTCCGAGGACAACAGGAGGTCAGAGCTGCCAGA", "RARb homodimer (NR concentration 270 nM)", 3.75],
  ["TCTTGTAGATCAAGCAGATTAAGAAAGCCTGAGT", "RARb homodimer (NR concentration 270 nM)", -0.625],
  ["TCTGCTAGGTCAACGATGGTCAGCTATTCTGCTA", "RARb homodimer (NR concentration 270 nM)", 3.16],
  ["GCTAGTTGGTCAGTAAAAGGTCACACTCCGGTCG", "RARb homodimer (NR concentration 270 nM)", 5.07],
  ["CCAGACAGGTGAGAAGGTAACTCTGCCTCGATTA", "RARb homodimer (NR concentration 270 nM)", 0.53],
  ["CCTACTGGGCCAAAGGTCATTGCTTCCAATGCTC", "RARb homodimer (NR concentration 270 nM)", 4.58],
  ["CCTCGGAGGATAACAGGAGGTCAGAGCTGCCAGA", "RARb homodimer (NR concentration 270 nM)", 2.61],
  ["CTCGAAACGTCGGTTGAGGTGAGTATACGGATAA", "RARb homodimer (NR concentration 270 nM)", -0.165],
  ["TGTCAAAGTTCAAAGGTAACTTAAGTATCCACAC", "RARb homodimer (NR concentration 270 nM)", 3.71],
  ["CTAACAAGGTGAACAAGGTCGTTGATTACTATTC", "RARb homodimer (NR concentration 270 nM)", 1.94],
  ["CAGCCTAGGTCAGAGCCAGTATAGGAGGAACGTT", "RARb homodimer (NR concentration 270 nM)", 2.13],
  ["CCTATTAGTTGACCATAAGGGAAACCGAAGCTCG", "RARb homodimer (NR concentration 270 nM)", 0.512],
  ["GATACAGAGTCAAGGCCAGAGTACGCGTATTGAT", "RARb homodimer (NR concentration 270 nM)", 0.0594],
  ["CAAACTACGTCAAGGTCAAAGTCGGTTTGTGCCA", "RARb homodimer (NR concentration 270 nM)", 4.2],
  ["TCATATAGGTTAACAGGTGAAAGTCCGTAAGTTA", "RARb homodimer (NR concentration 270 nM)", 1.85],
  ["CCTAGGAGGACAGAAGGTCAGAGCTGTCCGCTTT", "RARb homodimer (NR concentration 270 nM)", 3.34],
  ["AGTCAAAGTTCAGGACGAGGTAACATAAAGCACG", "RARb homodimer (NR concentration 270 nM)", 3.26],
  ["TCGAGTAGGTTACCAATGGCGCATTCAGCTTTCT", "RARb homodimer (NR concentration 270 nM)", 0.00418],
  ["CGTCCAAGGTCAAGGTCAGGGAAAGAGACTCGAA", "RARb homodimer (NR concentration 270 nM)", 5.45],
  ["CCGAGTAGGTTATGGGGCATTTAGGCAACGGTGA", "RARb homodimer (NR concentration 270 nM)", 0.777],
  ["CATACAGGTTCAGCTAGGCCAGAGTAGGGACGGC", "RARb homodimer (NR concentration 270 nM)", 0.871],
  ["CGAACTAGGTCAGAACAGGACAGGGAAGGATGAT", "RARb homodimer (NR concentration 270 nM)", 2.37],
  ["TTACCACGGTGAAGGTCGTTGATCCCTCTGTAGA", "RARb homodimer (NR concentration 270 nM)", 1.29],
  ["ATCTCTAGGTAACCAATTTCAGTGAATGCCGAAC", "RARb homodimer (NR concentration 270 nM)", 0.515],
  ["GCTGCTAGGTCAGGCTGGTCAGCTAACGGGTACG", "RARb homodimer (NR concentration 270 nM)", 2.55],
  ["TCTTGTAGATCAATAGAGGCTAAGAAAGTGCGCT", "RARb homodimer (NR concentration 270 nM)", -0.029],
  ["ATATGTAGGTTACATTCGGGTCATTCAGGCTATG", "RARb homodimer (NR concentration 270 nM)", 2.86],
  ["TATGCTAGGTCAGTTGGTCAGCTAACGAGCTGCC", "RARb homodimer (NR concentration 270 nM)", 2.5],
  ["CCTGCTAGGTCAATGGTCAGCCAAAGCAGCTCGC", "RARb homodimer (NR concentration 270 nM)", 3.05]
]}
